- experimental.target: T1, SNAP-GAL1R H263^6.51A (human, UniProt P47211 1-349, H263^6.51A, Lumi4-Tb on the SNAP tag)
- T1 construct: also called H263A; source: HEK293, transfected, on cells; not shown: SNAP tag, N-terminal, kept
- T1 sequence (looked up): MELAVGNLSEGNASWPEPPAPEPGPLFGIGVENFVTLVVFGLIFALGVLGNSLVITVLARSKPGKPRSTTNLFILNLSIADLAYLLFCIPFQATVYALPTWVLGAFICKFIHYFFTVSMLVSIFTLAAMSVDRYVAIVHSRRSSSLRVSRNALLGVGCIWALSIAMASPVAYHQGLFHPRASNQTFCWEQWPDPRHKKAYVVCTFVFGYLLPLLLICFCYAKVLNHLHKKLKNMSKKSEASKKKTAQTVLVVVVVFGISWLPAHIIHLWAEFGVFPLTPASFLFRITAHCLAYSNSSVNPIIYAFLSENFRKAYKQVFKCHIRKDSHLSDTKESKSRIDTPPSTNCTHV
- test.details: AlphaScreen or HTRF; saturation binding: HEK293 cells transfected with SNAP-tagged receptor (WT or mutant) and labelled with SNAP-Lumi4-Tb, incubated with increasing concentrations of galanin-A2 in the presence or absence of 100 uM unlabeled galanin, 1 h at room temperature; HTRF ratio 665 nm/620 nm
- assay.setup: one partner purified
result.type: Kd (nM)
One number for each entry, in nM.

Lab note: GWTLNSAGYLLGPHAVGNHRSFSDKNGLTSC (dye A2 on the additional C-terminal cysteine, numbers count on: the mature protein; additional cysteine at the C-terminal end of the peptide, carries the dye A2; source: synthetic peptide (synthesized by Vazyme, China)) gave Kd of 213
